- System: CCRIS mutagenicity, Ames/micronucleus/aberration tests
- protocol.summary: CCRIS mutagenicity studies
- setup.conditions: Test System: AMES SALMONELLA TYPHIMURIUM; Strain/Indicator: TA100; Metabolic Activation: RAT, LIVER, S-9, AROCLOR 1254; Method: PREINCUBATION
The source made the active and inactive calls. No rule for the calls is given here.
A correct response names exactly one class from Y for active, N for inactive

Cn1cccc1 = N
C=C(C)C=O = Y
NC(CNCCCC[C@H](N)C(=O)O)C(=O)O (some centres not stated) = N
Cc1ccc(C)cc1 = N
CCCC/C=C/C=C/C=C/C=C/C=C/OC[C@@H](O)CO = Y

Continue with the next compound.
Exercise: Field: outcome | Entry: Cc1c(N)nc(C)c2c1[nH]c1ccccc12
Solution: N
